Where do the numbers come from? From patent US10428054B2.

# Experimental target: KMO mouse enzyme (Mus musculus)
# Construct: KMO enzyme prepared at Evotec from mouse liver (4-6 weeks old) via mitochondria isolation; from tissue; host or cells: mouse liver (4-6 weeks old), mitochondria isolation, prepared at Evotec
# Measurement description: KMO enzyme assay: L-Kynurenine hydroxylation to 3-Hydroxy-Kynurenine by LC/MS (protocols substantially similar to Biology Example 3)
# Assay type: biochemical
# Condition label: compound at 30 μM; Biology Example 4 table; read-out: Percent Inhibition at 30 μM
Observation type: inhibition at 30 µM (%)
Write the number in % without appending the unit.

O=C(O)[C@H]1C[C@@H]1C(=O)c1nc2ccccc2s1
91.8
O=C(O)[C@H]1C[C@@H]1C(=O)c1cc(Cl)c2occc2c1
100
O=C(O)[C@H]1C[C@@H]1C(=O)c1cccs1
80.3
O=C(O)[C@H]1C[C@@H]1C(=O)c1ccsc1
83.2
O=C(O)[C@H]1C[C@@H]1C(=O)c1cc(Cl)c2ncccc2c1
100
O=C(O)[C@H]1C[C@@H]1C(=O)c1cc(Cl)c2nccnc2c1
101

Please give the measured inhibition at 30 µM for this compound: `Cc1nc2ccc(C(=O)[C@H]3C[C@@H]3C(=O)O)cc2s1`
74.5

Next entry: `O=C(O)[C@H]1C[C@@H]1C(=O)c1ccccn1`
45.6

Next entry: `O=C(O)[C@H]1C[C@@H]1C(=O)c1ccc(Cl)s1`
101

* * *

# Experimental target: KMO mouse enzyme (Mus musculus, UniProt Q91WN4)
# Construct: KMO enzyme prepared at Evotec from mouse liver (4-6 weeks old) via mitochondria isolation; from tissue; host or cells: mouse liver (4-6 weeks old), mitochondria isolation, prepared at Evotec
# Sequence (Q91WN4 whole entry): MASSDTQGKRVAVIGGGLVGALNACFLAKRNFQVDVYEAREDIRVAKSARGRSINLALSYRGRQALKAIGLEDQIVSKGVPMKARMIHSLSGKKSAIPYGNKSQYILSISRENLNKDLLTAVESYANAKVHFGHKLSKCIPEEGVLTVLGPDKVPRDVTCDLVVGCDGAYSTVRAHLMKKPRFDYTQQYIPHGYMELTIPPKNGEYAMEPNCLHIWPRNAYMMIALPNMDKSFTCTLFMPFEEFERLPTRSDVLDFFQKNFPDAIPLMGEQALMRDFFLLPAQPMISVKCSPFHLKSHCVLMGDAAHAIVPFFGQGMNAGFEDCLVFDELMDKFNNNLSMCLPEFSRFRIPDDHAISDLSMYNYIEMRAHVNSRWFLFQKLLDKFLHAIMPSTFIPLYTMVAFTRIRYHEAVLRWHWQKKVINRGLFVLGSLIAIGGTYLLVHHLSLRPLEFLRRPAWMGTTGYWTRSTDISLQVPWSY
# Measurement description: KMO enzyme assay: L-Kynurenine hydroxylation to 3-Hydroxy-Kynurenine by LC/MS (protocols substantially similar to Biology Example 3)
# Assay type: biochemical
# Condition label: compound at 30 μM; tables of Methods 1-6; read-out: % Inhibition at 30 μM
# Method: A method of monitoring L-Kynurenine (KYN) hydroxylation to form 3-Hydroxy-Kynurenine (30H-KYN) by LC/MS is described. Product is quantified by multiple reaction monitoring (MRM method). […] IC50's are calculated using automated fitting algorithm (A+ Analysis). […]
Observation type: inhibition at 30 µM (%)
Write the number in % without appending the unit.

Some compounds with known inhibition at 30 µM results, for comparison:
O=C(O)[C@H]1C[C@@H]1C(=O)c1ccccn1
45.6
O=C(O)[C@H]1C[C@@H]1C(=O)c1ccc(Cl)s1
101
O=C(O)[C@H]1C[C@@H]1C(=O)c1cc(Cl)c2ncccc2c1
100
O=C(O)[C@H]1C[C@@H]1C(=O)c1nc2ccccc2s1
91.8

Proceeding to the next compound to report its inhibition at 30 µM.
Please give the measured inhibition at 30 µM for this compound: `O=C(O)[C@H]1C[C@@H]1C(=O)c1cccs1`
80.3

* * *

# Experimental target: KMO mouse enzyme (Mus musculus)
# Construct: KMO enzyme prepared at Evotec from mouse liver (4-6 weeks old) via mitochondria isolation; from tissue; host or cells: mouse liver (4-6 weeks old), mitochondria isolation, prepared at Evotec
# Measurement description: KMO enzyme assay: L-Kynurenine hydroxylation to 3-Hydroxy-Kynurenine by LC/MS (protocols substantially similar to Biology Example 3)
# Assay type: biochemical
# Condition label: compound at 30 μM; tables of Methods 1-6; read-out: % Inhibition at 30 μM
The entries below are paired with their reported inhibition at 30 µM.
Write the number in % without appending the unit.

O=C(O)[C@H]1C[C@@H]1C(=O)c1ccsc1
83.2
O=C(O)[C@H]1C[C@@H]1C(=O)c1cc(Cl)c2nccnc2c1
101
Cc1cc2cc(C(=O)[C@H]3C[C@@H]3C(=O)O)cc(Cl)c2o1
102

Proceeding to the next compound to report its inhibition at 30 µM.
Please give the measured inhibition at 30 µM for this compound: `O=C(O)[C@H]1C[C@@H]1C(=O)c1cc(Cl)c2occc2c1`
100
